- Tested on: 282377-053-R-J1-PDC complex spheroid viability;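 also: spheroids exposed to compounds for seven days; 100% = DMSO vehicle control viability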
- PROCEDURE_TEXT: Anticancer human tumor 282377-053-R-J1-PDC patient-derived colon adenocarcinoma cell line growth inhibition [POLQ]
- MEASUREMENT_CONDITIONS: second compound 3.16 µM; first compound 10 µM; stronger effect = lower value
PARAMETER: viability, T/C (%)

{"columns": ["COMPOUND", "REPORTED_RESULT"],
 "data": [
  ["CC1COCCN1c1cc(C2(O)CC3CCC(C2)O3)c2cnn(-c3ccn[nH]3)c2n1 (centres undefined) + Nc1ccc(C#CCN(C(=O)Cc2ncc(C(F)(F)F)cc2C(F)(F)F)c2ccc(F)cc2)nn1", 40.8],
  ["CCc1cc2c(N3CCc4c(cc(Cn5ccnc5)cc4-c4cn(C)nc4C(F)(F)F)C3=O)ccnc2c(OC)n1 + Cc1cccc(N(C)C(=O)C2C(O)CCN2c2nc(C)cc(C(F)(F)F)c2C#N)c1", 116],
  ["CC(C)n1c(=O)n(C)c2cnc3cc(F)c(-c4ccc(OCCCN5CCCCC5)nc4)cc3c21 + COC1C(OC(N)=O)C(O)C(Oc2ccc3c(O)c(NC(=O)c4ccc(O)c(CC=C(C)C)c4)c(=O)oc3c2C)OC1(C)C", 101],
  ["O=c1[nH]cc(F)c(=O)[nH]1 + Nc1ccc(C#CCN(C(=O)Cc2ncc(C(F)(F)F)cc2C(F)(F)F)c2ccc(F)cc2)nn1", 85.9],
  ["COc1ccc([C@@H](O)c2cc(-c3ncnc4cc(N5CCOCC5)ccc34)c(F)cc2Cl)nn1 + COC1C(OC(N)=O)C(O)C(Oc2ccc3c(O)c(NC(=O)c4ccc(O)c(CC=C(C)C)c4)c(=O)oc3c2C)OC1(C)C", 57.6],
  ["COc1cccc2c1C(=O)c1c(O)c3c(c(O)c1C2=O)CC(O)(C(=O)CO)CC3OC1CC(N)C(O)C(C)O1 (centres undefined) + Cc1cccc(N(C)C(=O)C2C(O)CCN2c2nc(C)cc(C(F)(F)F)c2C#N)c1", 2.98],
  ["Nc1ccn(C2OC(CO)C(O)C2(F)F)c(=O)n1 (centres undefined) + COC1C(OC(N)=O)C(O)C(Oc2ccc3c(O)c(NC(=O)c4ccc(O)c(CC=C(C)C)c4)c(=O)oc3c2C)OC1(C)C", 11.1],
  ["CCc1cc2c(N3CCc4c(cc(Cn5ccnc5)cc4-c4cn(C)nc4C(F)(F)F)C3=O)ccnc2c(OC)n1 + Nc1ccc(C#CCN(C(=O)Cc2ncc(C(F)(F)F)cc2C(F)(F)F)c2ccc(F)cc2)nn1", 123],
  ["O=C(c1cc(Cc2n[nH]c(=O)c3ccccc23)ccc1F)N1CCN(C(=O)C2CC2)CC1 + Nc1ccc(C#CCN(C(=O)Cc2ncc(C(F)(F)F)cc2C(F)(F)F)c2ccc(F)cc2)nn1", 115],
  ["CC1COCCN1c1cc(C2(S(C)(=N)=O)CC2)nc(-c2ccnc3[nH]ccc23)n1 (centres undefined) + Cc1cccc(N(C)C(=O)C2C(O)CCN2c2nc(C)cc(C(F)(F)F)c2C#N)c1", 49.7],
  ["COc1cc(C2c3cc4c(cc3C(OC3OC5COC(C)OC5C(O)C3O)C3COC(=O)C23)OCO4)cc(OC)c1O (centres undefined) + COC1C(OC(N)=O)C(O)C(Oc2ccc3c(O)c(NC(=O)c4ccc(O)c(CC=C(C)C)c4)c(=O)oc3c2C)OC1(C)C", 51.7],
  ["O=C(Nc1ccc(O)c(NS(=O)(=O)c2ccc(F)cc2)c1)c1ccc(-c2ccccc2)cc1 + COC1C(OC(N)=O)C(O)C(Oc2ccc3c(O)c(NC(=O)c4ccc(O)c(CC=C(C)C)c4)c(=O)oc3c2C)OC1(C)C", 104],
  ["CNCc1ccc(-c2[nH]c3cc(F)cc4c3c2CCNC4=O)cc1 + COC1C(OC(N)=O)C(O)C(Oc2ccc3c(O)c(NC(=O)c4ccc(O)c(CC=C(C)C)c4)c(=O)oc3c2C)OC1(C)C", 167],
  ["C=CC(=O)N1CCN(c2nc(=O)n(-c3c(C)ccnc3C(C)C)c3nc(-c4c(O)cccc4F)c(F)cc23)C(C)C1 (centres undefined) + Nc1ccc(C#CCN(C(=O)Cc2ncc(C(F)(F)F)cc2C(F)(F)F)c2ccc(F)cc2)nn1", 87.9],
  ["CC(C)n1c(=O)n(C)c2cnc3cc(F)c(-c4ccc(OCCCN5CCCCC5)nc4)cc3c21 + Cc1cccc(N(C)C(=O)C2C(O)CCN2c2nc(C)cc(C(F)(F)F)c2C#N)c1", 92.7],
  ["CC1COCCN1c1cc(C2(S(C)(=N)=O)CC2)nc(-c2ccnc3[nH]ccc23)n1 (centres undefined) + COC1C(OC(N)=O)C(O)C(Oc2ccc3c(O)c(NC(=O)c4ccc(O)c(CC=C(C)C)c4)c(=O)oc3c2C)OC1(C)C", 45.3],
  ["COc1cc2cc(C(=O)CCC(=O)O)sc2cc1OC + COC1C(OC(N)=O)C(O)C(Oc2ccc3c(O)c(NC(=O)c4ccc(O)c(CC=C(C)C)c4)c(=O)oc3c2C)OC1(C)C", 115],
  ["COc1cccc2c1C(=O)c1c(O)c3c(c(O)c1C2=O)CC(O)(C(=O)CO)CC3OC1CC(N)C(O)C(C)O1 (centres undefined) + Nc1ccc(C#CCN(C(=O)Cc2ncc(C(F)(F)F)cc2C(F)(F)F)c2ccc(F)cc2)nn1", 3.58],
  ["COc1cc(C2c3cc4c(cc3C(OC3OC5COC(C)OC5C(O)C3O)C3COC(=O)C23)OCO4)cc(OC)c1O (centres undefined) + Nc1ccc(C#CCN(C(=O)Cc2ncc(C(F)(F)F)cc2C(F)(F)F)c2ccc(F)cc2)nn1", 91.9]
]}
